test: xn = mol fraction of the nth substance listed; conditions: 343.15 K; 100 kPa; Liquid; Concentric cylinders viscometry; x2 = 0.25
viscosity below 20 mPa·s gives Criterion not met; viscosity at or above it gives Criterion met.

molecule | group
CCCCn1cc[n+](C)c1.COP(=O)([O-])OC [1-butyl-3-methyl-1H-imidazolium dimethylphosphate] + CCCC[n+]1ccn(C)c1.O=S(=O)([N-]S(=O)(=O)C(F)(F)F)C(F)(F)F | Criterion met
CC(=O)[O-].CCCCn1cc[n+](C)c1 [1-butyl-3-methylimidazolium acetate] + CCCC[n+]1ccn(C)c1.O=S(=O)([N-]S(=O)(=O)C(F)(F)F)C(F)(F)F | Criterion met
CCCCn1cc[n+](C)c1.N#C[S-] [1-butyl-3-methylimidazolium thiocyanate] + CCCC[n+]1ccn(C)c1.O=S(=O)([N-]S(=O)(=O)C(F)(F)F)C(F)(F)F | Criterion not met
CCCCn1cc[n+](C)c1.F[P-](F)(F)(F)(F)F [1-butyl-3-methylimidazolium hexafluorophosphate] + CCCC[n+]1ccn(C)c1.O=S(=O)([N-]S(=O)(=O)C(F)(F)F)C(F)(F)F | Criterion met
CCCCn1cc[n+](C)c1.O=S(=O)([O-])C(F)(F)F [1-butyl-3-methylimidazolium trifluoromethanesulfonate] + CCCC[n+]1ccn(C)c1.O=S(=O)([N-]S(=O)(=O)C(F)(F)F)C(F)(F)F | Criterion not met
